molecular target: TJP1_1, Q07157; assay: holdup assay; parameters: key: below the threshold = too weak to quantify, mostly under pKd 3.1 to 4; conditions: plain residues with an end cap or a label only (N-terminal biotin on a linker: ttds)
Sequence (Q07157 18-120): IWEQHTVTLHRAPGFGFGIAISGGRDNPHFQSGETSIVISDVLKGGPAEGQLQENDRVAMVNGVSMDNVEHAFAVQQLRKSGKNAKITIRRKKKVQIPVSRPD

BINDER | pKd
KLVIKTETTV [RASSF6, Q6ZTQ3] | below the threshold
SRSRRRETAL [HPV33-E6, P06427] | below the threshold
SSIDLWETAL [SLC15A5, A6NIM6] | below the threshold
